Source of measurements: patent US7696186B2

System: E. coli
Assay: In Vitro Minimum Inhibitory Concentration (MIC) Assay
Assay type: cell-based
Design: key: compounds which were good inhibitors of growth of a particular bacteria are indicated with *; compounds which were very good inhibitors of a particular bacteria are indicated with **; compounds with were particularly good inhibitors of a particular bacteria are indicated with ***
Settings: CAMHB, 35° C., approximately 18 hr
quantity: E. coli (inhibition of growth, MIC assay)

{"columns": ["givenSmiles", "result"],
 "data": [
  ["CN(C)[C@@H]1C(O)=C(C(N)=O)C(=O)[C@@]2(O)C(O)=C3C(=O)c4c(O)c(CN)cc(-c5ccccc5)c4C[C@H]3C[C@@H]12", "*"],
  ["CN(C)[C@@H]1C(O)=C(C(N)=O)C(=O)[C@@]2(O)C(O)=C3C(=O)c4c(O)c(CN5C(=O)c6ccccc6C5=O)cc(CN5C(=O)c6ccccc6C5=O)c4C[C@H]3C[C@@H]12", "*"],
  ["CCc1cc(C#Cc2ccc(OC)cc2)c(O)c2c1C[C@H]1C[C@H]3[C@H](N(C)C)C(O)=C(C(N)=O)C(=O)[C@@]3(O)C(O)=C1C2=O", "*"],
  ["CN(C)[C@@H]1C(O)=C(C(N)=O)C(=O)[C@@]2(O)C(O)=C3C(=O)c4c(O)c(CN)cc(-c5cccc([N+](=O)[O-])c5)c4C[C@H]3C[C@@H]12", "*"],
  ["CC(=O)NCc1cc(-c2ccccc2)c2c(c1O)C(=O)C1=C(O)[C@]3(O)C(=O)C(C(N)=O)=C(O)[C@@H](N(C)C)[C@@H]3C[C@@H]1C2", "*"],
  ["CCc1cc(CC)c2c(c1O)C(=O)C1=C(O)[C@]3(O)C(=O)C(C(N)=O)=C(O)[C@@H](N(C)C)[C@@H]3C[C@@H]1C2", "**"],
  ["CN(C)[C@@H]1C(O)=C(C(N)=O)C(=O)[C@@]2(O)C(O)=C3C(=O)c4c(O)c(CN5C(=O)c6ccccc6C5=O)cc(-c5cccc([N+](=O)[O-])c5)c4C[C@H]3C[C@@H]12", "*"],
  ["CCc1cc(CNC(=O)c2cccnc2)c(O)c2c1C[C@H]1C[C@H]3[C@H](N(C)C)C(O)=C(C(N)=O)C(=O)[C@@]3(O)C(O)=C1C2=O", "*"],
  ["COc1ccc(C#Cc2cc(C#Cc3ccc(OC)cc3)c3c(c2O)C(=O)C2=C(O)[C@]4(O)C(=O)C(C(N)=O)=C(O)[C@@H](N(C)C)[C@@H]4C[C@@H]2C3)cc1", "*"],
  ["CCCCc1cc(CN)c(O)c2c1C[C@H]1C[C@H]3[C@H](N(C)C)C(O)=C(C(N)=O)C(=O)[C@@]3(O)C(O)=C1C2=O", "**"],
  ["CCCCCCc1cc(CN)c(O)c2c1C[C@H]1C[C@H]3[C@H](N(C)C)C(O)=C(C(N)=O)C(=O)[C@@]3(O)C(O)=C1C2=O", "***"]
]}

----------
Test system: E. coli
Experiment: In Vitro Minimum Inhibitory Concentration (MIC) Assay
Format: cell-based
Set-up: key: compounds which were good inhibitors of growth of a particular bacteria are indicated with *; compounds which were very good inhibitors of a particular bacteria are indicated with **; compounds with were particularly good inhibitors of a particular bacteria are indicated with ***
Conditions: CAMHB, 35° C., approximately 18 hr
quantity: E. coli (inhibition of growth, MIC assay)

{"columns": ["givenSmiles", "result"],
 "data": [
  ["CCc1cc(CN)c(O)c2c1C[C@H]1C[C@H]3[C@H](N(C)C)C(O)=C(C(N)=O)C(=O)[C@@]3(O)C(O)=C1C2=O", "*"],
  ["CCCc1cc(CN)c(O)c2c1C[C@H]1C[C@H]3[C@H](N(C)C)C(O)=C(C(N)=O)C(=O)[C@@]3(O)C(O)=C1C2=O", "**"],
  ["CCc1cc(C#CC2=CCCCC2)c(O)c2c1C[C@H]1C[C@H]3[C@H](N(C)C)C(O)=C(C(N)=O)C(=O)[C@@]3(O)C(O)=C1C2=O", "*"]
]}
